These entries and their values trace back to patent US7902201B2.

Target: GABA A receptors containing the α5 subunit (α5β3γ2) (Homo sapiens, UniProt P18507+P31644)
Construct: membranes prepared from cell pellets
Assay: [3H]flumazenil competition binding assay, human GABA A receptor (hKi)
Conditions: human receptor transiently transfected in HEK293 cells, means of two determinations
observedProperty: Ki
Express your answer as a number followed by its unit.

Recorded Ki for O=C(NC1CCOCC1)c1cnc(OCc2conc2-c2ccccn2)cn1 , please? 14.3 nM

Suppose we examine the molecule CC(C)NC(=O)c1cnc(OCc2conc2-c2ccccn2)cn1 ; what Ki value has been reported? 9.6 nM

Look up Ki: C[C@@H](CO)NC(=O)c1cnc(OCc2conc2-c2ccc(Cl)cc2)cn1 32 nM

Quick one: Ki for Cc1onc(-c2ccccc2)c1CNc1cnc(C(=O)NC(C)C)cn1 ? 9.6 nM

Item O=C(NC1CC1)c1cnc(OCc2conc2-c2ccccn2)cn1 has what recorded Ki? 13.7 nM

I am curious: what Ki value has been reported for Cc1onc(-c2ccccc2)c1COc1cnc2ccccc2n1 ? 7.4 nM

// returns reported Ki for input Cc1onc(-c2ccccc2)c1COc1cnc(C(=O)NC2CCC(F)(F)CC2)cn1 10.6 nM

// returns reported Ki for input CC(C)NC(=O)c1cnc(OCc2conc2-c2ccc(Cl)cc2)cn1 11.6 nM

Recorded Ki of O=C(NCC1CC1)c1cnc(OCc2conc2-c2ccc(F)cc2)cn1 , please. 21 nM

Report Ki for CC(C)NC(=O)c1cnc(OCc2conc2-c2ccc(F)cc2)cn1 please. 11 nM

What value of measured Ki is listed for Cc1onc(-c2ccccc2)c1COc1cnc(C(=O)NC(C)C)cn1 ? 1.2 nM

Fill in the blank: the reported Ki of Cc1onc(-c2ccc(F)cn2)c1COc1cnc(C(=O)NC2CCOCC2)cn1 is ____. 0.3 nM

Name the reported Ki value associated with the molecule Cc1onc(-c2ccccc2)c1COc1cnc(C(=O)NC(C)(C)C)cn1 10.8 nM

Requested field: Ki. Item: Cc1onc(-c2ccccc2)c1COc1cnc(C(=O)NC2CCOCC2)cn1 1.2 nM

Quick check: Ki of O=C(NCC(F)(F)F)c1cnc(OCc2conc2-c2ccc(F)cc2)cn1 ? 24 nM

// Ki lookup, key: C[C@H](CO)NC(=O)c1cnc(OCc2conc2-c2ccc(Cl)cc2)cn1 7.4 nM

What Ki value was documented for this molecule, Cc1onc(-c2ccccc2)c1COc1cnc(C(=O)NC2CC2)cn1 ? 1.9 nM

Consider the molecule shown here: COC(=O)c1cnc(OCc2c(-c3ccccc3)noc2C)cn1 What is its recorded Ki? 29 nM

What value of measured Ki is listed for Cc1onc(-c2ccccc2)c1COc1cnc(C(=O)NCC2CC2)cn1 ? 3.1 nM
